Data origin, for the record: ChEMBL document CHEMBL5291721

# TARGET UNDER TEST: 5-hydroxytryptamine receptor 1A (Homo sapiens)
# Assay type: functional, cell-based
Below is a list of entries, each paired with its recorded AC50 value.

COMPOUND | TARGET UNDER TEST | AC50
Cn1nnc2c(C(N)=O)ncn2c1=O [TEMOZOLOMIDE] | 5-hydroxytryptamine receptor 1A (Homo sapiens) | > 30 µM
C#C[C@]1(O)CC[C@H]2[C@@H]3[C@H](C)CC4=C(CCC(=O)C4)[C@H]3CC[C@@]21C | 5-hydroxytryptamine receptor 1A (Homo sapiens) | > 30 µM
CNC(=O)c1ccccc1Sc1ccc2c(/C=C/c3ccccn3)n[nH]c2c1 | 5-hydroxytryptamine receptor 1A (Homo sapiens) | > 30 µM
O=C(O)/C=C/c1ccc(Cn2ccnc2)cc1 | 5-hydroxytryptamine receptor 1A (Homo sapiens) | > 30 µM
CN1C(=O)OC(C)(C)C1=O | 5-hydroxytryptamine receptor 1A (Homo sapiens) | > 10 µM
O=C(NCCN1CCOCC1)c1ccc(Cl)cc1 [MOCLOBEMIDE] | 5-hydroxytryptamine receptor 1A (Homo sapiens) | > 10 µM
CC(C(=O)O)c1ccc(N2Cc3ccccc3C2=O)cc1 (centres undefined) | 5-hydroxytryptamine receptor 1A (Homo sapiens) | > 30 µM
Cc1cccc(C(C)c2cnc[nH]2)c1C (centres undefined) | 5-hydroxytryptamine receptor 1A (Homo sapiens) | > 30 µM
COC1=C(OC)C(=O)C(C/C=C(\C)CC/C=C(\C)CC/C=C(\C)CC/C=C(\C)CC/C=C(\C)CC/C=C(\C)CC/C=C(\C)CC/C=C(\C)CC/C=C(\C)CCC=C(C)C)=C(C)C1=O | 5-hydroxytryptamine receptor 1A (Homo sapiens) | > 30 µM

###

AC50 tested on Endothelin receptor type B (Homo sapiens, UniProt P24530): recorded values; also: assay procedure not described here
Sequence (P24530 whole entry): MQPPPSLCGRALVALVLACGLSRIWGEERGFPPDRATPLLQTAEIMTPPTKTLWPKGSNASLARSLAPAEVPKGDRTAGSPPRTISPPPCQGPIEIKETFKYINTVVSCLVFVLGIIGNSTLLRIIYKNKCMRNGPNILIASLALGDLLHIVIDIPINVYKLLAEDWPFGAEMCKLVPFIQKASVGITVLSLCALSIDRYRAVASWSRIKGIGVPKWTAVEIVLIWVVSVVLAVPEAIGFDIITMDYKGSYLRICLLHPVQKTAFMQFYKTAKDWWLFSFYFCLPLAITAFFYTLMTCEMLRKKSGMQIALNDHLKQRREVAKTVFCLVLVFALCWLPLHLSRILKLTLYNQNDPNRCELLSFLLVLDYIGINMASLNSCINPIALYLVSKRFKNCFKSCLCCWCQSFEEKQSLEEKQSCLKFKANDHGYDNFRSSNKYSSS

MOLECULE | AC50
CCCN(CCC)C(=O)C(CCC(=O)O)NC(=O)c1ccccc1 (stereo not drawn) [PROGLUMIDE] | > 30 µM
Cc1c(OCC(F)(F)F)ccnc1C[S+]([O-])c1nc2ccccc2[nH]1 (stereo not drawn) | > 30 µM
CC1=C(C(=O)O)N2C(=O)[C@@H](NC(=O)[C@H](N)c3ccccc3)[C@H]2SC1 [CEPHALEXIN ANHYDROUS] | > 30 µM

###

Values of AC50 reported for Growth hormone secretagogue receptor type 1 (Homo sapiens) appear below.

COMPOUND | AC50
C[C@@H]1O[C@@H](O[C@@H]2C=C3CC[C@@H]4[C@H](CC[C@]5(C)[C@@H](c6ccc(=O)oc6)CC[C@]45O)[C@@]3(C)CC2)[C@H](O)[C@H](O)[C@H]1O | > 30 µM
COc1ccc(CC(C)(C)NC[C@H](O)c2cc(O)cc3c2OCC(=O)N3)cc1 | > 30 µM
COC(=O)C1=C(C)NC(C)=C(C(=O)OC(C)(C)CN(C)CCC(c2ccccc2)c2ccccc2)C1c1cccc([N+](=O)[O-])c1 (stereo not drawn) | > 30 µM

###

# TARGET UNDER TEST: 5-hydroxytryptamine receptor 1A (Homo sapiens)
# Sequence (P08908 whole entry): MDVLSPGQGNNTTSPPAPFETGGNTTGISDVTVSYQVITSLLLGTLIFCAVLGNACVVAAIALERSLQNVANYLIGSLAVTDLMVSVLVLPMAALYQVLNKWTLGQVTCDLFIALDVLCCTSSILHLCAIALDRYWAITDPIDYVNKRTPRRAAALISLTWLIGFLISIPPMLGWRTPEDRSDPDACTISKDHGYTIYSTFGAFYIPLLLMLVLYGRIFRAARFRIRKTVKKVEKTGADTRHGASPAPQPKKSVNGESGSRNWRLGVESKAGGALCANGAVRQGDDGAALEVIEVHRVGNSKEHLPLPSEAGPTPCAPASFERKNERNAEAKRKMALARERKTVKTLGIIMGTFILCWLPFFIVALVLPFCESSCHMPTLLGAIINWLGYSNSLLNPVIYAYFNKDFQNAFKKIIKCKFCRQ

COMPOUND | AC50
CC(C)Nc1ncccn1 [ISAXONINE] | > 30 µM
N[C@H](C(=O)O)[C@H](O)c1ccc(O)c(O)c1 [DROXIDOPA] | > 30 µM
CC(C)(C)N1CCC(c2ccccc2)(c2ccccc2)CC1 [BUDIPINE] | > 30 µM
Oc1c(Cl)cc(Cl)c2cccnc12 [CHLOROXINE] | 17.2 µM
OC[C@@H](O)[C@H](O)[C@@H](O)CO [XYLITOL] | > 30 µM
O=C(Nc1ccc(Cl)cc1)Nc1ccc(Cl)c(Cl)c1 [TRICLOCARBAN] | > 30 µM

###

# TARGET UNDER TEST: UniProt:P08588
# Sequence (P08588 whole entry): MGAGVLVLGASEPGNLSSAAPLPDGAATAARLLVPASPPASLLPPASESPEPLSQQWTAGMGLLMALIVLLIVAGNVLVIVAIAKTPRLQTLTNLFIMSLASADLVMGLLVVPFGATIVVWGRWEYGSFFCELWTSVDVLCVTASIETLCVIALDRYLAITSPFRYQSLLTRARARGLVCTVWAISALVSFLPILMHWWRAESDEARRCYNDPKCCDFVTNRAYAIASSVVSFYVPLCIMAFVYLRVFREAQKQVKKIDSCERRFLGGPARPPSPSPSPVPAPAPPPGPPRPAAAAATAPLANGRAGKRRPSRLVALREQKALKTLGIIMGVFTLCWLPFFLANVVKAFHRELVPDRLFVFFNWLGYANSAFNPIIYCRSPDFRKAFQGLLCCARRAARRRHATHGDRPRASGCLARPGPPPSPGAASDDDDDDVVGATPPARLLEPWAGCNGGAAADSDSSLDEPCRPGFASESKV
# Format: functional

COMPOUND | TARGET UNDER TEST | AC50
CC/C(=C(\c1ccccc1)c1ccc(OCCN(C)C)cc1)c1ccccc1 | UniProt:P08588 | 17.6 µM
Fc1ccc(C(c2ccccc2)(c2ccccc2F)n2ccnc2)cc1 (configuration not stated) | UniProt:P08588 | > 30 µM
Cc1nc([N+](=O)[O-])cn1-c1ccc([N+](=O)[O-])cc1 | UniProt:P08588 | > 30 µM
NCC(CC(=O)O)c1ccc(Cl)cc1 (configuration not stated) | UniProt:P08588 | > 30 µM
CCCN(CCC)C(=O)C(CCC(=O)O)NC(=O)c1ccccc1 (configuration not stated) [PROGLUMIDE] | UniProt:P08588 | > 30 µM
CC1=C(C(=O)O)N2C(=O)[C@@H](NC(=O)[C@H](N)c3ccccc3)[C@H]2SC1 [CEPHALEXIN ANHYDROUS] | UniProt:P08588 | > 10 µM
CN1C(=O)C(O)N=C(c2ccccc2)c2cc(Cl)ccc21 (configuration not stated) | UniProt:P08588 | > 10 µM
Nc1nc(NC2CC2)c2ncn([C@H]3C=C[C@@H](CO)C3)c2n1 | UniProt:P08588 | > 30 µM
CCC(C(=O)O)c1ccc(N2Cc3ccccc3C2=O)cc1 (configuration not stated) | UniProt:P08588 | > 30 µM
CCC1(CC)C(=O)NCC(C)C1=O (configuration not stated) | UniProt:P08588 | > 30 µM
C/C(O)=C(\C#N)C(=O)Nc1ccc(C(F)(F)F)cc1 [TERIFLUNOMIDE] | UniProt:P08588 | > 30 µM
CC(=O)OCC(=O)[C@@]12N=C(C)O[C@@H]1C[C@H]1[C@@H]3CCC4=CC(=O)C=C[C@]4(C)[C@H]3[C@@H](O)C[C@@]12C | UniProt:P08588 | > 30 µM
CC(C)Cn1cnc2c(N)nc3ccccc3c21 | UniProt:P08588 | > 10 µM
CC(=O)Nc1ccc(O)cc1 | UniProt:P08588 | > 30 µM
O=C1Nc2ccc(Cl)cc2[C@@](C#CC2CC2)(C(F)(F)F)O1 | UniProt:P08588 | 19 µM
CCc1c(Cl)c(O)c(Cl)c(O)c1C(=O)O[C@H]1[C@H](O)[C@H](OC)[C@H](OC/C2=C\C=C\C[C@H](O)/C(C)=C/[C@H](CC)[C@@H](O[C@@H]3OC(C)(C)[C@@H](OC(=O)C(C)C)[C@H](O)[C@@H]3O)/C(C)=C/C(C)=C/C[C@@H]([C@@H](C)O)OC2=O)O[C@@H]1C | UniProt:P08588 | > 10 µM
O=C(O)/C=C/c1ccc(Cn2ccnc2)cc1 | UniProt:P08588 | > 30 µM

###

# TARGET UNDER TEST: Adenosine receptor A3 (Homo sapiens, UniProt P0DMS8); also: assay procedure not described here
# Sequence (P0DMS8 whole entry): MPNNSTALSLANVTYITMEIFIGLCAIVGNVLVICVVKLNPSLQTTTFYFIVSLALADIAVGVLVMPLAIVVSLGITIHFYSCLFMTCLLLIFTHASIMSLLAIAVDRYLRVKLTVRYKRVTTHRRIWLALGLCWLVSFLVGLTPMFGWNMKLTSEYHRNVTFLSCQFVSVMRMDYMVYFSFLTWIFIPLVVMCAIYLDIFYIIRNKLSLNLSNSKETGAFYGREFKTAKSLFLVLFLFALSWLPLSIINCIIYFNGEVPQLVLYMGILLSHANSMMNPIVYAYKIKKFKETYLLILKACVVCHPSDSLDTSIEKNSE
ENDPOINT LABEL: AC50

GIVEN SMILES | ASSAY RESULT
CO[C@H]1C[C@@H]2CC[C@@H](C)[C@@](O)(O2)C(=O)C(=O)N2CCCC[C@H]2C(=O)O[C@H]([C@H](C)C[C@@H]2CC[C@@H](O)[C@H](OC)C2)CC(=O)[C@H](C)/C=C(\C)[C@@H](O)[C@@H](OC)C(=O)[C@H](C)C[C@H](C)/C=C/C=C/C=C/1C | 21.3 µM
C=CCN1C[C@H](C(=O)N(CCCN(C)C)C(=O)NCC)C[C@@H]2c3cccc4[nH]cc(c34)C[C@H]21 | > 10 µM
O=C(O[C@H]1C[C@H]2CC[C@@H](C1)[N+]21CCCC1)C(O)(c1ccccc1)c1ccccc1 | > 30 µM

###

// reported AC50 per item
# TARGET UNDER TEST: Alpha-1A adrenergic receptor (Homo sapiens, UniProt P35348); also: assay procedure not described here
# Sequence (P35348 whole entry): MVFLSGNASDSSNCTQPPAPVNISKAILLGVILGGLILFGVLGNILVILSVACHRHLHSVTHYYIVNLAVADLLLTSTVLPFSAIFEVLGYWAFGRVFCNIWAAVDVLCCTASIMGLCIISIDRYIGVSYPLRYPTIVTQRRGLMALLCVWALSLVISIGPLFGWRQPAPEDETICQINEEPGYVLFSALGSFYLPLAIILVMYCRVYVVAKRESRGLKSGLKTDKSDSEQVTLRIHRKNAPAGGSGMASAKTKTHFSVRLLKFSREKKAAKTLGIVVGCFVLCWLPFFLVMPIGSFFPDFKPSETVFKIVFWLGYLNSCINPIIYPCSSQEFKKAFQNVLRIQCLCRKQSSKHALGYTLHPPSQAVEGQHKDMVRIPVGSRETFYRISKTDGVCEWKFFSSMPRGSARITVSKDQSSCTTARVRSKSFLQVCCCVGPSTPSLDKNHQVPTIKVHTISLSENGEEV
# Assay type: functional, cell-based

COMPOUND | AC50
COc1ccccc1N1CCN(CCCNc2cc(=O)n(C)c(=O)n2C)CC1 | 0.57 µM
COc1ccc(C(=O)Nc2ccccc2CCC2CCCCN2C)cc1 (centres undefined) [ENCAINIDE] | > 30 µM
C1CCC(C(CC2CCCCN2)C2CCCCC2)CC1 (centres undefined) | > 10 µM
O=C(O)C[C@H](O)C[C@H](O)/C=C/c1c(C2CC2)nc2ccccc2c1-c1ccc(F)cc1 | > 30 µM
COc1ccccc1OCCNCC(O)c1ccc(C)c(S(N)(=O)=O)c1 (centres undefined) | 0.24 µM
CC[C@@H]1C(=O)OC[C@@H]1Cc1cncn1C | > 30 µM
Clc1ccc(CCCOCCCN2CCCCC2)cc1 | > 30 µM
O=C(O[C@H]1C[C@H]2CC[C@@H](C1)[N+]21CCCC1)C(O)(c1ccccc1)c1ccccc1 | > 30 µM
CC(C)=CCC/C(C)=C/C=C/C(C)=C/C=C/C(C)=C/C=C/C=C(C)/C=C/C=C(C)/C=C/C=C(\C)CCC=C(C)C | > 30 µM
